Biological target: Human M4 (Homo sapiens)
Construct: expressed in transfected cells
Sequence (P08173 1-479): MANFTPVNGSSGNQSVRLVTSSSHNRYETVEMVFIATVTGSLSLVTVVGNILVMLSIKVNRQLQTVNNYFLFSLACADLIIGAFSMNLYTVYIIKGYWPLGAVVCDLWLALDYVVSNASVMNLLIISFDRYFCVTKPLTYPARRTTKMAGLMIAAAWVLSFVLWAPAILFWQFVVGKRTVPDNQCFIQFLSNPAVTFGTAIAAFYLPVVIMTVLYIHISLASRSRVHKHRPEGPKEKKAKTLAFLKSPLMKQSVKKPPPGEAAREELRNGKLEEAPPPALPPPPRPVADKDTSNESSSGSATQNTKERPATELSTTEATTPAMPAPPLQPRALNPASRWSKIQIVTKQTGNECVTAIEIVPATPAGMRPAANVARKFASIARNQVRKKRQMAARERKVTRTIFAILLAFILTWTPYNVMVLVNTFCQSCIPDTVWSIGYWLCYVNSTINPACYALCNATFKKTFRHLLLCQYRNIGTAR
Assay: mAChR M4 cell-based functional assay (calcium flux, potentiation of EC20 acetylcholine response), hM4-Gqi5 CHO-K1 cells
Conditions: Table 3; potentiation of EC20 acetylcholine response, calcium flux, CHO-K1 cells; read-out: Human M4 EC50
The reader will find reported EC50 values listed item by item below.
Express the result in nM but write the number alone.

// below: answered compounds
1. Cc1cc(Nc2cnc3c(c2)CN(c2nn4cnnc4c(C)c2C)CC3)n(CC(C)C)n1 [Compound 212] ... 5410
2. Cc1c(N2Cc3cc(C(F)(F)F)cnc3C(C)C2)nn2cnnc2c1C (stereo not drawn) [Compound 246] ... 408
3. Cc1c(N2CCc3ncc(OCC4COC4)cc3C2)nn2cnnc2c1C [Compound 262] ... 1580
4. Cc1cc2c(nc1C)CCN(c1nn3cnnc3c(C)c1C)C2 [Compound 167] ... 188
5. Cc1c(N2CCc3ncc(-c4cnn(C5CCC5)c4)cc3C2)nn2c(C(F)(F)F)nnc2c1C [Compound 235] ... 788

*Q* Record request: EC50 value, item COc1cnc(Cl)c(-c2cnc3c(c2)CN(c2nn4cnnc4c(C)c2C)CC3)c1 [Compound 178]
*A* 578

*Q* Record request: EC50 value, item Cc1c(N2CCc3ncc(-c4ccc(N(C)C)nc4)cc3C2)nn2c(C(F)(F)F)nnc2c1C [Compound 241]
*A* 1230

*Q* Record request: EC50 value, item Cc1c(N2CCc3ncc(N4CCOc5ncccc54)cc3C2)nn2c(C(F)(F)F)nnc2c1C [Compound 282]
*A* 64

*Q* Record request: EC50 value, item Cc1cc(C)n(-c2cnc3c(c2)CN(c2nn4c(C(F)(F)F)nnc4c(C)c2C)CC3)n1 [Compound 243]
*A* 729

*Q* Record request: EC50 value, item Cc1cccc(C(=O)Nc2cnc3c(c2)CN(c2nn4cnnc4c(C)c2C)CC3)c1 [Compound 157]
*A* 785

*Q* Record request: EC50 value, item Cc1cc2nncn2nc1N1CCc2ncc(-c3cccnc3)cc2C1 [Compound 199]
*A* 334

*Q* Record request: EC50 value, item Cc1c(N2CCc3ncc(N4CCN(C)CC4)cc3C2)nn2c(C(F)(F)F)nnc2c1C [Compound 276]
*A* 1970

*Q* Record request: EC50 value, item Cc1c(N2CCc3ncc(-c4ccc(C5CC5)nc4)cc3C2)nn2c(C(F)(F)F)nnc2c1C [Compound 255]
*A* 602

*Q* Record request: EC50 value, item Cc1c(N2CCc3ncc(-c4ccns4)cc3C2)nn2c(C(F)(F)F)nnc2c1C [Compound 252]
*A* 140

*Q* Record request: EC50 value, item COC1CCCN(c2cnc3c(c2)CN(c2nn4c(C(F)(F)F)nnc4c(C)c2C)CC3)C1 (stereo not drawn) [Compound 292]
*A* 556
